System: A498
MEASUREMENT_DESCRIPTION: NCI tumour cell line growth inhibition, 48 h
The source made the active and inactive calls. No stated cut-off is given here; in the data, active = GI50 up to about 1.1 µM and inactive = higher.
Possible outcomes: yes = active, no = inactive

>>> print(df.to_string())
                                    compound  target_entity  group
 0  CC(=N\N)/C(C)=N/N=C(C)/C(C)=N/N=C(C)/C(C)=N/N=C(C)/C(C)=N/N           A498     no
 1  COc1cc(C(=O)N[C@H]2CCc3cc(OC)c(OC)c(OC)c3-c3ccc(SC)c(=O)cc32)cc(OC)c1OC           A498    yes
 2  C[n+]1c(-c2ccc(/C=N\N3CCN(/N=C/c4ccc(-c5cn6ccccc6[n+]5C)cc4)CC3)cc2)cn2ccccc21           A498     no
 3                 CC(C)OC(=O)NNc1cccc(Cl)c1           A498     no
 4  CCN(CC)C(c1ccc(N(C)C)cc1)C(c1ccc(N(C)C)cc1)N(CC)CC (stereo not given)           A498     no
 5  CN(C)c1ccc(/C=C/C=c2/c3ccccc3n3c2cc(-c2ccccc2)[n+]3C)cc1           A498    yes
 6  CC(NC(=O)/C(C#N)=C/c1ccc2[nH]ccc2c1)c1ccccc1 (stereo not given)           A498     no
 7  CC(=O)C(N1CCCCC1)C(O)(C(F)(F)F)C(F)(F)F (stereo not given)           A498     no
 8  COc1ccc(C2c3c(-c4ccccc4)nn(-c4ccccc4)c3Oc3ncn(N)c(=N)c32)cc1OC (stereo not given)           A498     no
 9   CNC(=O)N(CCC#N)CCCN(C(=O)N(C)C)c1ccccc1           A498     no
10  O=C(Nc1ccccc1)c1cc(S(=O)(=O)N2CCNNC2=O)c(S)cc1Cl           A498     no
11  COc1ccc(NC(=S)NNC(=O)c2cc(-c3ccccc3)nc3ccccc23)cc1           A498     no
12  C[C@]12CC[C@H](O)CC1=CC[C@@H]1[C@@H]2CC[C@]2(C)C(=O)/C(=C/c3ccc([N+](=O)[O-])cc3)C[C@@H]12           A498     no
13  Cc1nc2sccn2c1C(=O)OCCOCCOCCOCCOC(=O)c1c(C)nc2sccn12           A498     no
14            O=C([O-])C[n+]1ccccc1.c1ccncc1           A498     no
15  CC1OC(CC2C=CCc3c(O)c4c(c(O)c32)C(=O)c2ccccc2C4=O)CC(NC(=O)C(F)(F)F)C1O (stereo not given)           A498     no
16  O=C(CC(C(=O)c1cccs1)c1ccsc1)c1ccco1 (stereo not given)           A498     no
17  Brc1ccc2nc(-c3cccs3)nc(N3CCN(c4ccccc4)CC3)c2c1           A498     no
18  CCC1=CCC(P(=O)(c2ccccc2)c2ccccc2)CC1C (stereo not given)           A498     no
19  CCOC(=O)C1=CN2C(=N[C@H]3CCCC[C@@H]32)NC1=O           A498     no

====

System: OVCAR-5
MEASUREMENT_DESCRIPTION: NCI tumour cell line growth inhibition, 48 h
Calls of active or inactive are those of the source. Cut-off read from the data, not from the text of the source: active = GI50 up to about 1.1 µM and inactive = higher.
Below, each entry is listed alongside its reported GI50.
ASSAY_READOUT: GI50

                                   compound  assay_readout                value
0  C[C@H]1C=C2C(=O)O[C@H]3CC[C@@H](C1)[C@@]23O           GI50   4.33 µM (inactive)
1  CC(C)(C)c1ccc(OCCOCCOc2ccc(C(C)(C)C)cc2S(=O)(=O)Nc2ccc([N+](=O)[O-])cc2)c(S(=O)(=O)Nc2ccc([N+](=O)[O-])cc2)c1           GI50  > 100 µM (inactive)
2  C#C[C@]1(O)CC[C@H]2[C@@H]3CCC4=C/C(=N\OCCN5CCCC5)CC[C@]4(C)[C@H]3CC[C@@]21C           GI50   19.2 µM (inactive)
3  C#CC1(O)CCC2C3CCc4cc(Oc5nc(F)nc(-c6c7ccccc7c7sc8ccccc8n67)n5)ccc4C3CC[C@@]21C (stereo partly drawn)           GI50  > 100 µM (inactive)
4  COC(=O)c1cc(C)ccc1CC(Cc1cccc(C)c1)C(=O)OC (stereo not drawn)           GI50   17.3 µM (inactive)
5  O=c1[nH]nc(Cc2ccc(Cl)cc2)n1/N=C\CC/C=N\n1c(Cc2ccc(Cl)cc2)n[nH]c1=O           GI50  > 100 µM (inactive)
6  CC(NC(=O)/C(C#N)=C/c1ccc2[nH]ccc2c1)c1ccccc1 (stereo not drawn)           GI50   17.5 µM (inactive)
7  CC1(C)CC2=NOS3=C2C(=NO3)C1c1ccccn1 (stereo not drawn)           GI50  > 100 µM (inactive)

====

System: NCI-H226
MEASUREMENT_DESCRIPTION: NCI tumour cell line growth inhibition, 48 h
Activity calls are given as the source filed them. Rule as the data show it: active = GI50 up to about 1.1 µM and inactive = higher.
Outcome codes: active, inactive

COMPOUND	GROUP
CCCCCCCCCC(=O)N[C@@H](c1ccco1)[C@@H](O)C(=O)O[C@H]1C[C@@]2(O)[C@@H](OC(=O)c3ccccc3)[C@@H]3[C@]4(OC(C)=O)CO[C@@H]4C[C@H](O)[C@@]3(C)C(=O)[C@H](OC(C)=O)C(=C1C)C2(C)C	active
CCCCCCCCCC(=O)NC(CCC(=O)N(CCNC(=O)c1nc(-c2ccccc2)oc1-c1ccccc1)Cc1ccccc1)C(=O)O (centres undefined)	inactive
C#CCn1c(=O)c(Cl)cn(/C(=C/C(=O)OCC)C(=O)OCC)c1=O	inactive
COc1ccc(OC)c(-c2cn3c(n2)sc2ccccc23)c1	inactive
O=C(Nc1nc2ncn(CCI)c2c(=O)[nH]1)c1ccccc1	inactive
CCOC(=O)NC/C=C/CO	inactive
Cc1ccc2c(/C=C/c3ccc(N(C)C)cc3)ccnc2c1C	inactive
CCC(C)c1c(Cl)nc(Cl)nc1Cl (centres undefined)	inactive
COc1cc(/C=C/c2ccncc2)cc(OC)c1OC	inactive

====

Tested on: MCF7
MEASUREMENT_DESCRIPTION: NCI tumour cell line growth inhibition, 48 h
The source made the active and inactive calls. Rule as the data show it: active = GI50 up to about 1.1 µM and inactive = higher.
Possible outcomes: TRUE = active, FALSE = inactive

>>> print(df.to_string())
                                    compound  group
 0  O=c1cc(/C=C/c2ccc(O)c(O)c2)cc(/C=C/c2ccc(O)c(O)c2)o1  FALSE
 1  O=c1[nH]nc(Cc2ccc(Cl)cc2)n1/N=C\CC/C=N\n1c(Cc2ccc(Cl)cc2)n[nH]c1=O  FALSE
 2  CN(C)c1ccc(/C=N/c2ccc(Oc3ccc(Cl)cc3)c(Cl)c2)cc1  FALSE
 3  FC(F)(F)c1cc(Cl)cnc1N/N=C(/c1ccccc1)c1ccccn1  FALSE
 4  c1ccc(C[N+]23C(CC[C@H]2c2ccccc2)CC[C@H]3c2ccccc2)cc1 (stereo partly drawn)  FALSE
 5          CC(=O)Nc1ccc(Nc2cc(O)nc(O)n2)cc1  FALSE
 6  COc1c(Cl)ccc(Cl)c1C(=O)NNC(=O)c1c(Cl)c(Cl)c(Cl)c(Cl)c1-c1nc2cc(C(=O)c3ccccc3)ccc2[nH]1  FALSE
 7                    OCc1ccn2c1[C@@H](O)CC2  FALSE
 8  CN(C)c1cccc(F)c1C(=O)NC(=O)Nc1ccc(Cl)cc1  FALSE
 9  O=C1CC(O)c2c(Cl)sc(Cl)c21 (stereo not drawn)  FALSE
10  CCOC(=O)C1=C(C)N(c2ccc(C)cc2)C2(O)C=CC(O)=C3C(=O)c4ccccc4C(=O)C312 (stereo not drawn)  FALSE
11          O=c1cnn(CCOCP(=O)(O)O)c(=O)[nH]1  FALSE
12         COc1cc2ncnc(Nc3cccc(Br)c3)c2cc1OC  FALSE
13  O=C(CC(C(=O)c1cccs1)c1ccsc1)c1ccco1 (stereo not drawn)  FALSE
14  c1ccc(-c2nc(-c3ccccc3SSc3ccccc3-c3nc(-c4ccccc4)nn3-c3ccccc3)n(-c3ccccc3)n2)cc1  FALSE
15  O=c1onc2n1-c1cc(Cl)ccc1C(=S)N1CSCC21 (stereo not drawn)  FALSE
16  CC(C)[Si](OC12CCC(CC1O)CC2CO)(C(C)C)C(C)C (stereo not drawn)  FALSE
17  COC1=CC(=O)c2c(cc(COP(=O)(OCC3OC(n4cc(F)c(=O)[nH]c4=O)CC3O)N(C)CCCCCl)n2C)C1=O (stereo not drawn)   TRUE
